molecular target: HA of A/Wisconsin/67/05 (H3N2) (influenza A virus); assay: cell-based or functional assay
Reported Neutralization IC50, H3-WI05 values are given for each entry in this list.

INSERT INTO results (binder, recorded_value) VALUES
  ('Antibody 3 (antibody, V domains shown) VH: QVQLQESGPGLVKPSQTLSLTCAISGDSVSSNNAVWNWIRQSPSRGLEWLGRTYYRSKWYNDYAESVKSRITVNPDTSKNQFSLHLKSVTPEDTAVFYCVRSGHITVFGVNVDAFDMWGQGTMVTVSS VL: DIQMTQSPSSLSASVGDRVTITCRTSQSLSSYLHWYQQKPGKAPKLLIYAASSLQSGVPSRFSGSGSGTDFTLTISSLQPEDFATYYCQQSRTFGQGTKVEIK', '2.62 µg/mL');

Supply reported Neutralization IC50, H3-WI05 belonging to this binder: Antibody 14 (antibody, V domains shown) VH: QVQLQQSGPGLVKPSQTLSLTCAISGDSVSSNNAVWNWIRQSPSRGLEWLGRTYYRSKWYNDYAESVKSRITINPDTSKNQFSLQLNSVTPEDTAVYYCARSGHITVFGVNVDAFDMWGQGTTVTVSS VL: DIQMTQSPSSLSASVGDRVTITCRTSQSLSSYTHWYQQKPGKAPKLLIYAASSRLSGVPSRFSGSGSGTDFTLTISSLQPEDFATYYCQQSRTFGQGTKVEIK
1.19 µg/mL

Supply reported Neutralization IC50, H3-WI05 belonging to this binder: Antibody 13 (antibody, V domains shown) VH: QVQLQQSGPGLVKPSQTLSLTCAISGDSVSSYNAVWNWIRQSPSRGLEWLGRTYYRSGWYNDYAESVKSRITINPDTSKNQFSLQLNSVTPEDTAVYYCARSGHITVFGVNVDAFDMWGQGTMVTVSS VL: DIQMTQSPSSLSASVGDRVTITCRTSQSLSSYDHWYQQKPGKAPKLLIYAASSRLSGVPSRFSGSGSGTDFTLTISSLQPEDFATYYCQQSRTFGQGTKVEIK
1.19 µg/mL

Supply reported Neutralization IC50, H3-WI05 belonging to this binder: Antibody 15 (antibody, V domains shown) VH: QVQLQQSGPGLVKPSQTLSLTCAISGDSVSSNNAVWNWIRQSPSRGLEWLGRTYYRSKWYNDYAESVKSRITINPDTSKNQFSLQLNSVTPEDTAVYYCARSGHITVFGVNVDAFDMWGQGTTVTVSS VL: DIQMTQSPSSLSASVGDRVTITCRTSQSLSSYTHWYQQKPGKAPKLLIYAASSRGSGVPSRFSGSGSGTDFTLTISSLQPEDFATYYCQQSRTFGQGTKVEIK
1.3 µg/mL
